Molecular target: Alkaline phosphatase, tissue-nonspecific isozyme (Homo sapiens, UniProt P05186)
Sequence (P05186 whole entry): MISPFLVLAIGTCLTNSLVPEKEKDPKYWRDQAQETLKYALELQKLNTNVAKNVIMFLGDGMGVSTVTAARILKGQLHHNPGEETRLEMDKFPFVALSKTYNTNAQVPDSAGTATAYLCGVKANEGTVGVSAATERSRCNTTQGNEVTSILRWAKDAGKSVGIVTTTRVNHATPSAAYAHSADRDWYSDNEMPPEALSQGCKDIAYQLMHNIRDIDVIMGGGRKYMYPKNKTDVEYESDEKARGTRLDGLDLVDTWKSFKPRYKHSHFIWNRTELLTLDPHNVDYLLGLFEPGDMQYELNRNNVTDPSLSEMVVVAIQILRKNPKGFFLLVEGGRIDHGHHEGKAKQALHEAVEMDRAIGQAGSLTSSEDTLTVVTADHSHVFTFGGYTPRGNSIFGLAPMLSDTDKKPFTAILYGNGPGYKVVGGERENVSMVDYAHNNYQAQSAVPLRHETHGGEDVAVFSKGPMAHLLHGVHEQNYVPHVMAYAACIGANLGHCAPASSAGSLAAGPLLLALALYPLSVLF
Assay: potency against alkaline phosphatase TNAP – biochemical, luminescent, dose response, SAR follow-up (AID 1056)
Active and inactive are the calls of the source. No stated cut-off is given here; in the data, actives have a measured IC50 and inactives only a lower limit.
// allowed return values: 1 for active, 0 for inactive

Example cases with answers are listed next.
CHEMICAL SMILES: CCc1ccc(-c2cc(C(=O)O)[nH]n2)cc1
CAT: 1
//
CHEMICAL SMILES: O=C(NCCO)c1cc(-c2ccc(Cl)c(Cl)c2Cl)n[nH]1
CAT: 1
//
CHEMICAL SMILES: O=C1Nc2ccccc2/C1=C\NCCc1ccc(O)c(O)c1
CAT: 1
//
CHEMICAL SMILES: O=c1c2ccccc2sn1-c1ccc(Cl)c(S(=O)(=O)N2CCOCC2)c1
CAT: 0
//
CHEMICAL SMILES: Cc1ccc(C)c(-n2sc3ccccc3c2=O)c1
CAT: 0

Tell me the recorded outcome of this test for CCCCN1C(=O)/C(=N\Nc2ccccc2C(F)(F)F)c2ccccc21 .
1
